- System: Trypanosoma cruzi
- protocol_summary: Antiparasitic activity against Trypanosoma cruzi
- Type: functional, organism-based
Assign EC50 to each entry below.
Write the number in µM without appending the unit.

For the molecule shown here, "Fc1cccc(COc2ccc(Nc3ncnc4ccsc34)cc2Cl)c1" , give the reported EC50.
27

Cool, now "CC(C)(C)OCc1ccc(-c2cc3ncnc(Nc4ccc(OCc5cccc(F)c5)c(Cl)c4)c3s2)cc1"
30

Moving on to "Fc1cccc(COc2ccc(Nc3ncnc4sc(-c5cccc(N6CCOCC6)c5)cc34)cc2Cl)c1"
2.2

---

- System: Trypanosoma cruzi
- protocol_summary: Antiparasitic activity against Trypanosoma cruzi at 10 uM
- Type: functional
experimental_endpoint: inhibition at 10 µM
// return the numeric value with its unit appended

inhibition at 10 µM lookup needed for "Cc1cc(-c2cc3c(Nc4ccc(OCc5cccc(F)c5)c(Cl)c4)ncnc3s2)cnc1N1CCOCC1" , thanks.
29%

Please give the result for "CC(C)(C)OCc1ccc(-c2cc3c(Nc4ccc(OCc5cccc(F)c5)c(Cl)c4)ncnc3s2)cc1" too.
17%

Now the compound "Fc1cccc(COc2ccc(Nc3ncnc4cc(-c5ccccc5)sc34)cc2Cl)c1"
0%

Next compound: "Fc1cccc(COc2ccc(Nc3ncnc4ccc(-c5ccc(N6CCOCC6)cc5)cc34)cc2Cl)c1"
10.1%
